TESTED SYSTEM: Dual specificity protein phosphatase 6 (Rattus norvegicus) (UniProt Q64346)
Sequence (Q64346 whole entry, looked up): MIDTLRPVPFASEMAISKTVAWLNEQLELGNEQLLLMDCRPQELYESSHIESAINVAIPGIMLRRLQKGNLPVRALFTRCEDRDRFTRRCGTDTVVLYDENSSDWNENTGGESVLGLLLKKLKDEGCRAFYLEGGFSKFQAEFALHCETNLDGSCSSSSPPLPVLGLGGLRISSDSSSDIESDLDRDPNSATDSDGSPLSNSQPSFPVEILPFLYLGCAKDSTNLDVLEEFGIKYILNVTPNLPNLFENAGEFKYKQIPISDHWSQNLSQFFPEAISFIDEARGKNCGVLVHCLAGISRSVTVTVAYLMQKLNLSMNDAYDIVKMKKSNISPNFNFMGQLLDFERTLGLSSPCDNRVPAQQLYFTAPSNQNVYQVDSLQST
EXPERIMENT NOTES: MKP-3 phosphatase inhibitors, primary screen, biochemical, rat enzyme, in vitro (AID 425);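 also: plate controls were vehicle for no effect and reference inhibitor for full effect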
CONDITIONS: recombinant MKP-3 phosphatase activity, fluorescence; at 20 µM; active compounds read high
Hit rate of the full screen: of about 110,000 compounds, about 190 (0.17%) were called active. The sample as a whole holds a higher share of actives than the screen did. Results with a measured potency or affinity are listed apart.
I'd appreciate it if you could supply inhibition values for the items below.
One number for each entry, in %.

>>> print(df.to_string())
                                   compound  readout_value
0  CCOc1ccc2nc(Nc3nc(O)c(C)c(=O)[nH]3)nc(C)c2c1            0.7

Below is a list of compounds. For each, state its recorded inhibition.
1. O=C(O)C1Nc2c(C(=O)N3CCOCC3)cccc2C2C=CCC12 (stereo unspecified)
2. Cc1ccc(S(=O)(=O)Nc2cc(Sc3nc4ccccc4[nH]3)c(O)c3ccccc23)cc1
3. COc1ccc(CN2C(=O)C(O)(CC(=O)c3c(C)n[nH]c3C)c3ccccc32)cc1OC (stereo unspecified)
4. Brc1ccc(/C=N/n2c(-c3ccccc3)nnc2-c2ccccc2)cc1
5. CCn1cc(C(C)NC(=O)COc2ccc(Cl)cc2C)c(C)n1 (stereo unspecified)

Result:
[0.2, 8.1, -1.9, -2.7, -4]

* * *

TESTED SYSTEM: Dual specificity protein phosphatase 6 (Rattus norvegicus)
EXPERIMENT NOTES: MKP-3 phosphatase inhibitors, primary screen, biochemical, rat enzyme, in vitro (AID 425);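 also: plate controls were vehicle for no effect and reference inhibitor for full effect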
CONDITIONS: recombinant MKP-3 phosphatase activity, fluorescence; at 20 µM
About 190 (0.17%) of roughly 110,000 compounds were called active. Rule as the data show it: active = inhibition above about 50%; inactive = the rest. The entries come from a sample that favours actives as a whole. Entries with a potency or affinity are not part of this list.
Write down one outcome, taken from true (1) for active, false (0) for inactive

Take a look at these entries with their results.
>>> df
                                   molecule  class_assignment
0  COCCn1c(SCC(=O)Nc2cccc(OC)c2)nnc1-c1ccc(Cl)cc1         false (0)
1  COc1ccc(NC(=O)CN(c2ccc(C)cc2)S(=O)(=O)c2ccc(SC)cc2)cc1OC         false (0)
2  COc1ccccc1N1C(=O)C2C3C=CC(O3)C2C1=O (stereo unspecified)         false (0)
3  COc1ccc(S(=O)(=O)/N=C2\C=C(Br)C(=O)c3ccccc32)cc1          true (1)
4     CC(C)(C)NC(=O)C(=O)N/N=C/c1ccc(Cl)cc1         false (0)

Ask: # lookup: test call for COc1ccc(Cl)cc1C(=O)Nc1nc2ccc(S(C)(=O)=O)cc2s1
Result: false (0)

* * *

TESTED SYSTEM: Dual specificity protein phosphatase 6 (Rattus norvegicus) (UniProt Q64346)
EXPERIMENT NOTES: MKP-3 phosphatase inhibitors, primary screen, biochemical, rat enzyme, in vitro (AID 425);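 also: plate controls were vehicle for no effect and reference inhibitor for full effect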
CONDITIONS: recombinant MKP-3 phosphatase activity, fluorescence; at 20 µM; active compounds read high
Hit rate of the full screen: of about 110,000 compounds, about 190 (0.17%) were called active. Shown is part of a subset that was picked to be rich in actives. Entries with a potency or affinity are not part of this list.
PARAMETER MEASURED: inhibition (%)
Answers are plain numbers, in %.

Some solved cases for reference:
>>> df
                                   molecule                             tested_system  parameter_measured  readout_value
0  O=c1c2ccc(Br)c3cccc(c32)c2nc3cccc4cccc(c43)n12  Dual specificity protein phosphatase 6 (Rattus norvegicus) (UniProt Q64346)          inhibition            2.3
1  Cc1cc([N+](=O)[O-])ccc1N1C(=O)c2ccccc2C1=O  Dual specificity protein phosphatase 6 (Rattus norvegicus) (UniProt Q64346)          inhibition           -1.5
2  CCC(=O)N1CCc2cc(Br)cc(S(=O)(=O)N3CCN(C(=O)c4ccco4)CC3)c21  Dual specificity protein phosphatase 6 (Rattus norvegicus) (UniProt Q64346)          inhibition            4.6
3  O=C(NC(Cc1ccccc1)C(=O)N1CCN(c2ccccn2)CC1)c1ccco1 (configuration not stated)  Dual specificity protein phosphatase 6 (Rattus norvegicus) (UniProt Q64346)          inhibition           -1.1
4  Cc1ccc(-c2[nH]n3c(=O)cc(-c4ccc([N+](=O)[O-])cc4)nc3c2C)cc1  Dual specificity protein phosphatase 6 (Rattus norvegicus) (UniProt Q64346)          inhibition           -3.9
5  O=C(CSc1nc(O)c(Cc2ccccc2)c(=O)n1-c1ccccc1)N1CCOCC1  Dual specificity protein phosphatase 6 (Rattus norvegicus) (UniProt Q64346)          inhibition              3

Below is a list of molecules. For each, state its recorded inhibition.
1. O=C(O)c1ccc(-n2c(=O)c3ccccc3c3ccccc3c2=O)cc1
2. Cn1c(CCNC(=O)c2ccccc2F)nnc1SCc1nc2ccccc2c(=O)[nH]1
3. Cc1cc([N+](=O)[O-])ccc1NCc1ccco1
4. CCOC(=O)CNC(=O)CSc1nnc(Cn2cnc3ccccc32)n1C

Result:
1.5
-5.4
0.4
-4.9
